# key: entry, value: gcPBM binding intensity (ln)
Tested on: PF3D7_0420300 AP2 domain 1 (GST-tagged)
Test: gcPBM binding intensity (ln(normalized median fluorescence intensity)); higher = stronger DNA binding
Whole data set: some 25,000 sequences, median “ln(normalized median fluorescence intensity)” near 9.3, cut for the highest 2% near 10. The sample holds the highest values, similar sequences and a random draw of the others, so the mix is not that of the screen.
The response must contain the number and no unit.

As a guide, the following entries are already answered.
TATGTATAATTATTTTGTACTTATTAAATTTTTTTT [XGTACX_site5413] :: 9.18
TAATAGTTATAAAATACACACCAGGCATGATAAATG [CACACA_site4335] :: 9.5
TTAAACTTGAGACACACACACACACGGATATAAAAA [CACACA_site6495] :: 10.2
AATGACAACCTTGTCACACATATATATATATATATA [CACACA_site5977] :: 9.17
AAAGAAAATTAAAAAGAACACACAAATATATATATA [CACACA_site9196] :: 9.67
TGTAGTCTGGAGAAAAGTACATAGTATCTGGTAGCT [XGTACX_site2031] :: 9.32
TCTATATAGATTTGCACACATAAAAATGCTTATATA [CACACA_site2389] :: 9.27
ATATTTCATCTAGCTACACACATATAATAAATTATT [CACACA_site4094] :: 9.53

In the following, a different sequence is considered.
Q: Provide the documented gcPBM binding intensity (ln) with PF3D7_0420300 AP2 domain 1 (GST-tagged) as the system for ATATTTTTTTTTTTCACACACATTTAGATTGTATTA [CACACA_site3137]
Result: 9.86
